# target_or_test_system: Human CB2R (Cannabanoid receptor 2) (Homo sapiens (Human), UniProt P34972)
# Sequence (P34972 whole entry): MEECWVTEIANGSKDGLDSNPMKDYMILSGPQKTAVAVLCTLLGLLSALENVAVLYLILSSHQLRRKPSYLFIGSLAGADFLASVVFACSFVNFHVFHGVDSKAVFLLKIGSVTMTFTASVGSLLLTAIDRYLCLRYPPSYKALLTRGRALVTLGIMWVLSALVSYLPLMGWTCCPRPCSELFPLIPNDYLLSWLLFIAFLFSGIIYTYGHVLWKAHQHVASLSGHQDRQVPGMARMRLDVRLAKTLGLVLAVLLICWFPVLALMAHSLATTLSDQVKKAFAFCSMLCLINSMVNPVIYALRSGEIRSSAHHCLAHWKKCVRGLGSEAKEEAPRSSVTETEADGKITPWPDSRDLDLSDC
# test_name: CB-2 in vitro cAMP (HTRF) assay in HEK-293 cells
# experimental_setup: HEK-293 cells stably transfected with human CB2R, 250 nM Forskolin, mean where tested more than once, read-out: CB-2 (HEK_cAMP) EC50

[
  {
    "molecule": "O=C(O)c1ccc(N2CCC(c3c4cc(C(c5ccc(Cl)cc5)c5ccc(Cl)cc5)ccc4nn3C3CC3)CC2)cc1",
    "EC50": "9.3 µM"
  },
  {
    "molecule": "NC(=O)c1csc(CS(=O)(=O)N2CCC(c3nn(C4CC4)c4ccc(C(c5ccc(Cl)cc5)c5ccc(Cl)cc5)cc34)CC2)c1",
    "EC50": "> 10 µM"
  },
  {
    "molecule": "O=S(=O)(N1CCC(c2n[nH]c3ccc(C(c4ccc(Cl)cc4)C4CCCCC4)cc23)CC1)C(F)(F)F (centres unmarked)",
    "EC50": "> 42 µM"
  },
  {
    "molecule": "O=C(O)c1ccc(N2CCC(c3nn(C4CC4)c4ccc(C(c5ccc(Cl)cc5)c5ccc(Cl)cc5)cc34)CC2)cc1",
    "EC50": "> 10 µM"
  },
  {
    "molecule": "NC(=O)c1cc(S(=O)(=O)N2CCC(c3c4cc(C(c5ccc(Cl)cc5)c5ccc(Cl)cc5)ccc4nn3C3CC3)CC2)ccc1Cl",
    "EC50": "> 10 µM"
  },
  {
    "molecule": "COC(=O)c1ccc(S(=O)(=O)N2CCC(c3n[nH]c4ccc(C(c5ccc(Cl)cc5)c5ccc(Cl)cc5)cc34)CC2)cc1",
    "EC50": "> 10 µM"
  },
  {
    "molecule": "O=C(O)c1cccc(CN2CCC(c3nn(C4CC4)c4ccc(C(c5ccc(F)cc5)c5ccc(F)cc5)cc34)CC2)c1",
    "EC50": "> 10 µM"
  },
  {
    "molecule": "O=C(O)CC(=O)N1CCC(c2n[nH]c3ccc(C(c4ccc(Cl)cc4)c4ccc(Cl)cc4)cc23)CC1",
    "EC50": "> 10 µM"
  },
  {
    "molecule": "O=S(=O)(N1CCC(c2n[nH]c3ccc(C(c4ccc(Cl)cc4)c4ccc(Cl)cc4)cc23)CC1)C(F)(F)F [Compound 173]",
    "EC50": "5.78 µM"
  },
  {
    "molecule": "O=S(=O)(N1CCC(c2nn(-c3cccc(C(F)(F)F)c3)c3ccc(C(c4ccc(Cl)cc4)c4ccc(Cl)cc4)cc23)CC1)C(F)(F)F",
    "EC50": "> 10 µM"
  },
  {
    "molecule": "O=C(CC(F)(F)F)N1CCC(c2n[nH]c3ccc(C(c4ccc(Cl)cc4)c4ccc(Cl)cc4)cc23)CC1",
    "EC50": "> 10 µM"
  },
  {
    "molecule": "NC(=O)c1ccc(S(=O)(=O)N2CCC(c3nn(CCO)c4ccc(C(c5ccc(Cl)cc5)c5ccc(Cl)cc5)cc34)CC2)cc1",
    "EC50": "> 10 µM"
  },
  {
    "molecule": "O=C(O)c1ccc(C(O)(c2ccc(Cl)cc2)c2ccc3[nH]nc(C4CCN(S(=O)(=O)C(F)(F)F)CC4)c3c2)cc1 (centres unmarked)",
    "EC50": "> 10 µM"
  },
  {
    "molecule": "O=C(O)c1csc(CN2CCC(c3c4cc(C(c5ccc(Cl)cc5)c5ccc(Cl)cc5)ccc4nn3C3CC3)CC2)c1",
    "EC50": "> 10 µM"
  },
  {
    "molecule": "O=C(O)c1ccccc1S(=O)(=O)N1CCC(c2nn(C3CC3)c3ccc(C(c4ccc(Cl)cc4)c4ccc(Cl)cc4)cc23)CC1",
    "EC50": "> 10 µM"
  },
  {
    "molecule": "COc1ccccc1S(=O)(=O)N1CCC(c2c3cc(C(c4ccc(Cl)cc4)c4ccc(Cl)cc4)ccc3nn2C2CC2)CC1",
    "EC50": "> 10 µM"
  },
  {
    "molecule": "NC(=O)CS(=O)(=O)N1CCC(c2c3cc(C(c4ccc(Cl)cc4)c4ccc(Cl)cc4)ccc3nn2C2CC2)CC1",
    "EC50": "> 10 µM"
  },
  {
    "molecule": "O=C(O)Cc1cccc(N2CCC(c3nn(C4CC4)c4ccc(C(c5ccc(Cl)cc5)c5ccc(Cl)cc5)cc34)CC2)c1",
    "EC50": "> 10 µM"
  },
  {
    "molecule": "NC(=O)c1cccc(S(=O)(=O)N2CCC(Nc3n[nH]c4ccc(C(c5ccc(Cl)cc5)c5ccc(Cl)cc5)cc34)CC2)c1",
    "EC50": "> 10 µM"
  },
  {
    "molecule": "CNC(=O)c1ccc(S(=O)(=O)N2CCC(c3c4cc(C(c5ccc(Cl)cc5)c5ccc(Cl)cc5)ccc4nn3C3CC3)CC2)cn1",
    "EC50": "> 10 µM"
  },
  {
    "molecule": "O=C(O)c1ccc(CN2CCC(c3n[nH]c4ccc(C(c5ccc(Cl)cc5)c5ccc(Cl)cc5)cc34)CC2)cc1",
    "EC50": "> 42 µM"
  },
  {
    "molecule": "O=C(O)c1ccc(S(=O)(=O)N2CCC(c3c4cc(C(c5ccc(Cl)cc5)c5ccc(Cl)cc5)ccc4nn3C3CC3)CC2)cc1F [Compound 166]",
    "EC50": "2.39 µM"
  },
  {
    "molecule": "O=C(O)c1cccc(CN2CCC(c3nn(C4CC4)c4ccc(C(c5ccc(Cl)cc5)c5ccc(Cl)cc5)cc34)CC2)c1",
    "EC50": "9.7 µM"
  },
  {
    "molecule": "CNC(=O)c1ccc(S(=O)(=O)N2CCC(c3c4cc(C(c5ccc(Cl)cc5)c5ccc(Cl)cc5)ccc4nn3C3CC3)CC2)cc1Cl",
    "EC50": "> 10 µM"
  },
  {
    "molecule": "O=C(O)CCC(=O)N1CCC(c2c3cc(C(c4ccc(Cl)cc4)c4ccc(Cl)cc4)ccc3nn2C2CC2)CC1 [Compound 127]",
    "EC50": "> 10 µM"
  },
  {
    "molecule": "O=C(O)c1ccc(C(=O)N2CCC(c3c4cc(C(c5ccc(Cl)cc5)c5ccc(Cl)cc5)ccc4nn3C3CC3)CC2)cc1",
    "EC50": "> 10 µM"
  }
]
